The reported numbers originate from patent US9573939B2.

tested on: HCV replicon genotype 1b; assay: microbe, parasite or virus in culture; type: cell-based; conditions: Hepatitis C virus; HCV genotype 1b replicon cells; 96 hours incubation; replicon-encoded NS3/4A protein by ELISA; percentage of DMSO control
Endpoint name: IC50 (nM)
Hi! Could you send only the number? It should be in nM, unit omitted.

Consider the worked cases shown below.
| Compound | Endpoint name | Readout unit | Numeric readout |
| --- | --- | --- | --- |
| CNC(=O)c1c(-c2ccc(F)cc2)oc2cc(N(C)S(C)(=O)=O)c(-c3ccc4c(c3)ncn4-c3ccccc3)cc12 [Compound 22] | IC50 | nM | 2.9 |
| CNC(=O)c1c(-c2ccc(F)cc2)oc2cc(N(C)S(C)(=O)=O)c(-c3ccc4cnn(-c5ccc(Cl)cc5)c4c3)cc12 [Compound 52] | IC50 | nM | 6.9 |
| CNC(=O)c1c(-c2ccc(F)cc2)oc2cc(N(C)S(C)(=O)=O)c(-c3ccc4ncn(CCO)c4c3)cc12 [Compound 28] | IC50 | nM | 75.7 |

Problem: IC50 for CNC(=O)c1c(-c2ccc(F)cc2)oc2cc(N(C)S(C)(=O)=O)c(-c3ccc4ncn(-c5ccc(F)cc5)c4c3)cc12 [Compound 15] ?
Result: 20.2
